- System Name: T1, Cynomolgus Monkey VSIG4-L-His (cynomolgus monkey)
- T1 construct: ECD with His tag; also called cyVSIG4-L; cyno VSIG4-L-His
- T1 chain: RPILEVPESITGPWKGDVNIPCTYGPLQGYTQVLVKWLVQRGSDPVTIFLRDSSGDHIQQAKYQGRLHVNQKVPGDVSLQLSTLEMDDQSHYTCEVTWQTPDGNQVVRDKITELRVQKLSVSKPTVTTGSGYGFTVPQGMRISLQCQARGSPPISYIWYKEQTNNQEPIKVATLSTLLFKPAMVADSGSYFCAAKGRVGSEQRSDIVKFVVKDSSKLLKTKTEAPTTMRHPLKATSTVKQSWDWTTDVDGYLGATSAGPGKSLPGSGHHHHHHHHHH
- Protocol: SPR (FJB)
Provide the recorded pKd for the entries that follow.
Give bare numbers, as −log10 of the molar value.

Examples with answers:
15A06 mouse/human chimeric IgG4 (S228P) kappa (antibody, V domains shown) VH: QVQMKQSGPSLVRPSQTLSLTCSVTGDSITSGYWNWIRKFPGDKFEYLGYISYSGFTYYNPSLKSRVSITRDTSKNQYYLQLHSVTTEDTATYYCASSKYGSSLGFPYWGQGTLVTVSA VL: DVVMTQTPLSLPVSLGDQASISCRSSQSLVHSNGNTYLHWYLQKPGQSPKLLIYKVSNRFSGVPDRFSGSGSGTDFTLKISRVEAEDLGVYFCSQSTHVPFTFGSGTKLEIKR ... 7.84
13H11 mouse/human chimeric IgG4 (S228P) kappa (antibody, V domains shown) VH: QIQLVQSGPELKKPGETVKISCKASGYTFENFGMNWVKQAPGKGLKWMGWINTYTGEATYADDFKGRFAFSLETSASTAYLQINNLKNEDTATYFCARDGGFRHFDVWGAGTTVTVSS VL: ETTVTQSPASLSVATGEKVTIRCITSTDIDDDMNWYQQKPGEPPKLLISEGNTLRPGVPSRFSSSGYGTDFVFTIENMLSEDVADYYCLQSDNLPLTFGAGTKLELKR ... 7.70

API: the following record is the query input.
The recorded pKd for 15C04 mouse/human chimeric IgG4 (S228P) kappa (antibody, V domains shown) VH: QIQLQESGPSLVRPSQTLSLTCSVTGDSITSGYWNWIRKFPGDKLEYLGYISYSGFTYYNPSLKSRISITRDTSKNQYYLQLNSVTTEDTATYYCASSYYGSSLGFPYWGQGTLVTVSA VL: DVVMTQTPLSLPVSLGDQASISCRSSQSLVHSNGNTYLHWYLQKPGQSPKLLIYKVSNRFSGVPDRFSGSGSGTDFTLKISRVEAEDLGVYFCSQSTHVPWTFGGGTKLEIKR is 7.81
